# PROCEDURE_TEXT: recombinant UMI read abundance after kanamycin selection (control-corrected) (log10(CPM+1)); higher = more efficient recombination; extreme values may be limits of the assay; sequences stand for … in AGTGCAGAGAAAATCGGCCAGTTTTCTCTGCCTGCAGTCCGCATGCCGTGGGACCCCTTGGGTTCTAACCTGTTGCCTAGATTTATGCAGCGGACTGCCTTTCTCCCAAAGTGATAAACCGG…AGGTTGGTTTCACT; site = the 11-nt donor
Decision: recombinant UMI read abundance (log10) compared against 0.4; not below it gives Satisfied, below it gives Not satisfied.

[[record]]
seq_string = "AGCTCCGCATGGACCGGTTTTCCCGGTAATCCGTATTTGGG (site AGCTCAGCTCC)"
label = "Not satisfied"

[[record]]
seq_string = "TAATGGGCATGGACCGGTTTTCCCGGTAATCCGTATTTGGG (site TAATGTGCTCC)"
label = "Not satisfied"

[[record]]
seq_string = "TACGATACATGGACCGGTTTTCCCGGTAATCCGTATTTGGA (site TACGATACTTC)"
label = "Satisfied"

[[record]]
seq_string = "ACGTTCCCATGGACCGGTTTTCCCGGTAATCCGTATTTGTG (site AAGTTCCCTCA)"
label = "Not satisfied"

[[record]]
seq_string = "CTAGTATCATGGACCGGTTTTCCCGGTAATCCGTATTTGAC (site CTGGTATCTGG)"
label = "Not satisfied"

[[record]]
seq_string = "GCTCGTTCATGGACCGGTTTTCCCGGTAATCCGTATTTGAT (site GCTCGTTCTAT)"
label = "Satisfied"

[[record]]
seq_string = "ATCCGCGCATGGACCGGTTTTCCCGGTAATCCGTATTTGCG (site ATCCGCGCTCG)"
label = "Satisfied"

[[record]]
seq_string = "CAGTCGACATGGACCGGTTTTCCCGGTAATCCGTATTTGTG (site CAGTCGACTCC)"
label = "Not satisfied"


We next turn to a different sequence, shown below.
Is reported recombinant UMI read abundance (log10) greater than or equal to 0.4 here: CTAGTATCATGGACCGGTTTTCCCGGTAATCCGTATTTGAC (site CCAGTATCTGT)
Satisfied

###

# PROCEDURE_TEXT: recombinant UMI read abundance after kanamycin selection (control-corrected) (log10(CPM+1)); higher = more efficient recombination; extreme values may be limits of the assay; sequences stand for … in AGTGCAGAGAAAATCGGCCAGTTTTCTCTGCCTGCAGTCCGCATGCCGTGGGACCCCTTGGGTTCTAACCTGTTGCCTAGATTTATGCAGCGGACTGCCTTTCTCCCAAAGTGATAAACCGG…AGGTTGGTTTCACT; site = the 11-nt donor
Decision: recombinant UMI read abundance (log10) compared against 0.01; not below it gives TRUE, below it gives FALSE.

[[record]]
seq_string = "AGAGCGACATGGACCGGTTTTCCCGGTAATCCGTATTTGTG (site AGAGCGACTCA)"
label = "TRUE"

[[record]]
seq_string = "TCAACGTCATGGACCGGTTTTCCCGGTAATCCGTATTTGCA (site TCAACGTCTTG)"
label = "FALSE"

[[record]]
seq_string = "TATCAAACATGGACCGGTTTTCCCGGTAATCCGTATTTGGC (site TATCAAACTGC)"
label = "FALSE"

[[record]]
seq_string = "CGGTAACCATGGACCGGTTTTCCCGGTAATCCGTATTTGAT (site CGGAAACCTAT)"
label = "FALSE"


Is reported recombinant UMI read abundance (log10) greater than or equal to 0.01 here: GCTCTGTCATGGACCGGTTTTCCCGGTAATCCGTATTTGTT (site GCTCTGTCTAA)
TRUE

Is reported recombinant UMI read abundance (log10) greater than or equal to 0.01 here: ACAGTAACATGGACCGGTTTTCCCGGTAATCCGTATTTGGA (site ACAGTATCTTG)
FALSE

Is reported recombinant UMI read abundance (log10) greater than or equal to 0.01 here: ACGAAGCCATGGACCGGTTTTCCCGGTAATCCGTATTTGGG (site GCGAAGCCTCC)
TRUE

Is reported recombinant UMI read abundance (log10) greater than or equal to 0.01 here: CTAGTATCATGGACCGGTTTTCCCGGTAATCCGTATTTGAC (site CTAGCTTCTGT)
FALSE

Is reported recombinant UMI read abundance (log10) greater than or equal to 0.01 here: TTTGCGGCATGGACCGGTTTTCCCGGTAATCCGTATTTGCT (site TTAGCGGCTAG)
TRUE

Is reported recombinant UMI read abundance (log10) greater than or equal to 0.01 here: CTACTATCATGGACCGGTTTTCCCGGTAATCCGTATTTGGA (site CTACTATCTTC)
TRUE

Is reported recombinant UMI read abundance (log10) greater than or equal to 0.01 here: GTCTATACATGGACCGGTTTTCCCGGTAATCCGTATTTGAC (site TTCTATACTGT)
TRUE

Is reported recombinant UMI read abundance (log10) greater than or equal to 0.01 here: CATGGCCCATGGACCGGTTTTCCCGGTAATCCGTATTTGTT (site CACGGCCCTAA)
FALSE

Is reported recombinant UMI read abundance (log10) greater than or equal to 0.01 here: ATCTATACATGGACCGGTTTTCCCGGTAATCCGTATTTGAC (site ATCTATCCTGT)
FALSE

Is reported recombinant UMI read abundance (log10) greater than or equal to 0.01 here: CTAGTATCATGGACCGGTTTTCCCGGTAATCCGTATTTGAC (site ATAGCATCTGT)
FALSE

Is reported recombinant UMI read abundance (log10) greater than or equal to 0.01 here: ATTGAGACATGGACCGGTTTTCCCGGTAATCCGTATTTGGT (site ATTGAGTCTAC)
TRUE

Is reported recombinant UMI read abundance (log10) greater than or equal to 0.01 here: GAGGTTCCATGGACCGGTTTTCCCGGTAATCCGTATTTGGC (site GAGGTTCCTGC)
FALSE

Is reported recombinant UMI read abundance (log10) greater than or equal to 0.01 here: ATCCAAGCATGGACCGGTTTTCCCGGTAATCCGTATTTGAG (site TTCCAAGCTCT)
TRUE

Is reported recombinant UMI read abundance (log10) greater than or equal to 0.01 here: CACTAGCCATGGACCGGTTTTCCCGGTAATCCGTATTTGCC (site CTCTAGCCTGG)
FALSE

###

// recombinant barcode read abundance (log10) lookup, one value per entry
# PROCEDURE_TEXT: recombinant barcode read abundance after kanamycin selection (control-corrected) (log10(CPM+1)); higher = more efficient recombination; sequences stand for … in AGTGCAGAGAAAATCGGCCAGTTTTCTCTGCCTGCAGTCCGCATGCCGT…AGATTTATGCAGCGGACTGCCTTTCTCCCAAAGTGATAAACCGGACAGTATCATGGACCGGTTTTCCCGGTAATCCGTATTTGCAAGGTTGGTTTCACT; site = the 11-nt target

Some sequences with known recombinant barcode read abundance (log10) results, for comparison:
[[record]]
seq_string = "CGGATTGCTTGGGTTCTAACCTGTTGCCT (site CGGATTGCTAG)"
reading = 0.533

[[record]]
seq_string = "CGCTGGACTTGGGTTCTAACCTGTTGCCT (site CGCTTGACTAG)"
reading = 0.0799

[[record]]
seq_string = "TAGCATGCTTGGGTTCTAACCTGTTGCAA (site TAGCATGCTAT)"
reading = 0.382

[[record]]
seq_string = "TGCTCCTCTTGGGTTCTAACCTGTTGCCT (site AGCTCCTCTAG)"
reading = 0.0656

[[record]]
seq_string = "TTAGTTGCTTGGGTTCTAACCTGTTGCCT (site TTAGTTGCTAG)"
reading = 1.4


Look up recombinant barcode read abundance (log10) of TATTGGACTTGGGTTCTAACCTGTTGCAT (site TATTGGACTGT) and report it.
0.155

Look up recombinant barcode read abundance (log10) of TGGAGCACTTGGGTTCTAACCTGTTGCCT (site TGGAACACTAG) and report it.
0

Look up recombinant barcode read abundance (log10) of AACATTGCTTGGGTTCTAACCTGTTGCCT (site AACATTGCTAG) and report it.
0.979

Look up recombinant barcode read abundance (log10) of TAATGATCTTGGGTTCTAACCTGTTGCCT (site TAGTGATCTAG) and report it.
0.15

Look up recombinant barcode read abundance (log10) of GTTCAGACTTGGGTTCTAACCTGTTGCCT (site GTACAGACTAG) and report it.
1.15

Look up recombinant barcode read abundance (log10) of AGAGGGTCTTGGGTTCTAACCTGTTGCTT (site TGAGGGTCTAA) and report it.
0.606

Look up recombinant barcode read abundance (log10) of TCAATCCCTTGGGTTCTAACCTGTTGCCT (site TCGATCCCTAG) and report it.
0.173

Look up recombinant barcode read abundance (log10) of ACATGTCCTTGGGTTCTAACCTGTTGCTT (site ACATGTCCTAG) and report it.
0.136

Look up recombinant barcode read abundance (log10) of CACACCACTTGGGTTCTAACCTGTTGCCT (site CACAGCACTAG) and report it.
0.211

src = the supplement of paper PMC11208160
